Hello, the source for this data is patent US20220048967A1, in case you need it.

- assay-target: human GLP-1 receptor (human, UniProt P43220 24-463)
- method-description: cell-based or functional assay
Numbered stars: 1 amine (or outer) side, 2 acyl side, 3 side chain; on linkers, the order of the positions; unused ones are H or OH. Square brackets hold non-standard residues; d marks the D form. Side chains are listed from the residue outwards. Ends that are not written are not given here. * marks the point of attachment. C20 diacid = O=C(O)CCCCCCCCCCCCCCCCCCC(=O)*; γGlu = O=C(O)[C@H](CCC(=O)[*:2])N[*:1]; AEEA = NCCOCCOCC(=O)O; Aib = CC(C)(N)C(=O)O
attribute-measured: hGLP1R cAMP EC50 ratio
Form field (numeric): enter value without unit.

Entry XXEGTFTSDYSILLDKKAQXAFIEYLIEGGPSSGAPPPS (D-Tyr1; Aib2; K17((2-[2-(2-Amino-ethoxy)-ethoxy]-acetyl)2-(γ-Glu)-CO-(CH2)18-CO2H); Aib20; C-terminal NH2) [Example 78] — recorded hGLP1R cAMP EC50 ratio = 0.143

// sample Y[Aib]EGTFTSDYSILLDKIAQ[Aib]AFK([AEEA-AEEA-γGlu-C20 diacid])EYLIEGGPSSGAPPPS-NH2 [Example 33] , its hGLP1R cAMP EC50 ratio was 0.000256
